Values from ChEMBL document CHEMBL3596164

- target or system: Pancreatic triacylglycerol lipase (Sus scrofa)
- Sequence (whole entry): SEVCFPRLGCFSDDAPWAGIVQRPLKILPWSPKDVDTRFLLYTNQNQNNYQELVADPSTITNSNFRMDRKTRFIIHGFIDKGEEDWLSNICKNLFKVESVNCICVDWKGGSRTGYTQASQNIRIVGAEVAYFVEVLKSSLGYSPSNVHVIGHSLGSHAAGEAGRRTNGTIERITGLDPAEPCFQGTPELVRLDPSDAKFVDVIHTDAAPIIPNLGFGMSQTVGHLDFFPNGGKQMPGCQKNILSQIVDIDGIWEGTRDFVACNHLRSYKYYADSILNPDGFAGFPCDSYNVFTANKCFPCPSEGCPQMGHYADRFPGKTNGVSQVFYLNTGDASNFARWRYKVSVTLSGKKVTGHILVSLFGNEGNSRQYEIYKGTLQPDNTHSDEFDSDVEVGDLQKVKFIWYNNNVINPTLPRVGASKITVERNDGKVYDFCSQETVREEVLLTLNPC
- protocol: Inhibition of pig pancreatic lipase at 30 uM after 10 mins by spectrophotometry relative to control
The source made the active and inactive calls. The rule behind the calls is not given here.
attribute measured: inhibition

Sample records with inhibition:
compound=CCCCCCCCCCOC(=O)/C=C/c1cccc(O)c1 attribute_measured=inhibition result=inactive
compound="CC(C)=CCC/C(C)=C/COC(=O)/C=C/c1ccc(O)c(O)c1 [GERANYL CAFFEATE]" attribute_measured=inhibition result=62%
compound=O=C(/C=C/c1ccc(O)cc1)OCCc1ccccc1 attribute_measured=inhibition result=inactive
compound=O=C(/C=C/c1ccc(O)c(O)c1)OCCc1ccccc1 attribute_measured=inhibition result=62%
compound=CCCCCCCCCCOC(=O)/C=C/c1cc(O)c(O)c(O)c1 attribute_measured=inhibition result=92%

stdin: Entry under review: `CCCCCCCCCCOC(=O)/C=C/c1ccc(O)c(O)c1` . Reported inhibition?
stdout: 38%

stdin: Which inhibition is listed for `CCCCCCCCCCOC(=O)/C=C/c1ccc(O)cc1` ?
stdout: inactive

stdin: Bench note: what inhibition did `O=C(/C=C/c1ccc(O)c(O)c1)OCCCCCCc1ccccc1` show?
stdout: 54%

stdin: Find the recorded inhibition belonging to `O=C(/C=C/c1ccc(O)cc1)OCCCCCCc1ccccc1` and report it.
stdout: inactive
